TARGET OR TEST SYSTEM: NaV1.7 (Homo sapiens, UniProt Q15858)
Construct: expressed in transfected cells; tetracycline-inducible, kept under hygromycin and blasticidin
Sequence (Q15858 whole entry): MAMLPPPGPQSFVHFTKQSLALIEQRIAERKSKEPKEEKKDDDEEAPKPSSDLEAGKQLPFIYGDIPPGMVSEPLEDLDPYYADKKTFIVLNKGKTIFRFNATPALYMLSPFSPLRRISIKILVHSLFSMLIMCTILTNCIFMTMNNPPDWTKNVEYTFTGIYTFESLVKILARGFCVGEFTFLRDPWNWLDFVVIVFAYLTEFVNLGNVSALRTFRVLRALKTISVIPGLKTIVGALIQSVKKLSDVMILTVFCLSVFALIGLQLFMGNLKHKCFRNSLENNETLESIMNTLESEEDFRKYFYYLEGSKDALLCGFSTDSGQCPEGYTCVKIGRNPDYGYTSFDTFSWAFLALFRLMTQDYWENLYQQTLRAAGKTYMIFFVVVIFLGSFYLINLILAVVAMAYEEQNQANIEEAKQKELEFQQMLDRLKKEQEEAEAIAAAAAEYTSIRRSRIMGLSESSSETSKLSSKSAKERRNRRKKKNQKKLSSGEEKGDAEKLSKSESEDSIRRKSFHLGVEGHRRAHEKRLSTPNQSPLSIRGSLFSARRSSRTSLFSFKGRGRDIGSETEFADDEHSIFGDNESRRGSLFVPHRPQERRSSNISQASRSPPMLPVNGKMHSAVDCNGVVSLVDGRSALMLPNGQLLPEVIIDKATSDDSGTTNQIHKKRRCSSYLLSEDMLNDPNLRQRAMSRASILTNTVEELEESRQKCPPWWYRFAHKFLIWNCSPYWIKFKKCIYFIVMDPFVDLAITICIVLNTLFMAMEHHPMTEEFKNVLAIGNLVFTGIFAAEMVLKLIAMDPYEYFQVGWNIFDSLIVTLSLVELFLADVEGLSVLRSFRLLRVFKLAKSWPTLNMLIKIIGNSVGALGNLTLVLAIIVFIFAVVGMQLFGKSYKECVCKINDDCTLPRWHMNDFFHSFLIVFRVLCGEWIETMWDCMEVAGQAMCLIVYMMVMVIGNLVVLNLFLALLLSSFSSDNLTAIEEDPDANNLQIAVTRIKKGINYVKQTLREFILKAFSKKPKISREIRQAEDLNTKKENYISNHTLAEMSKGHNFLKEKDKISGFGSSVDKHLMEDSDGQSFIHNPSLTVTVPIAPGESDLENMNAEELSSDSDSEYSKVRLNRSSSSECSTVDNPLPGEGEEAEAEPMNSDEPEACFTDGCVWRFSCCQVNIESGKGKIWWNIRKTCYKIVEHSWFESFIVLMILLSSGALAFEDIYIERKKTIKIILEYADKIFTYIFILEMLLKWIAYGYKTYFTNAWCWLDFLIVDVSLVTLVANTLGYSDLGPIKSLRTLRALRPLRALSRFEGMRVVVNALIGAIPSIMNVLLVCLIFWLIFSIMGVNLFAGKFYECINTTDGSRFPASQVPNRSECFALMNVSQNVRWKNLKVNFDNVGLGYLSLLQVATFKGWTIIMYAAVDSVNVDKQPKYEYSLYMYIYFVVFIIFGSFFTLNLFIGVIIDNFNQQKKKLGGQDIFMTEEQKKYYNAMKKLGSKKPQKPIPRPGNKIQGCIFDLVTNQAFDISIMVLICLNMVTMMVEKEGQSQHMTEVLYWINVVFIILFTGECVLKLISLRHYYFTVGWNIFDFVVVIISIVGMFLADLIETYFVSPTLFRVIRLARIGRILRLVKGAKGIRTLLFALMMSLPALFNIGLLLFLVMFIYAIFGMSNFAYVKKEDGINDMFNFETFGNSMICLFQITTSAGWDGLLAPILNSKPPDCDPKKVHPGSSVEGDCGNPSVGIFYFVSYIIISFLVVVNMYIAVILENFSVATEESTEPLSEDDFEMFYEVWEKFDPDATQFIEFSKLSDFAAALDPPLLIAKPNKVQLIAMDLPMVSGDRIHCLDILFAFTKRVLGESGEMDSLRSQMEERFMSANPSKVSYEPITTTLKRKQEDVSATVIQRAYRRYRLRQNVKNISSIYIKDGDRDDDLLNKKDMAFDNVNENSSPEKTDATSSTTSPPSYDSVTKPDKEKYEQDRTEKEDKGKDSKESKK
ASSAY COMMENT: Whole cell patch clamp, internal block of NaV1.7 current (compound in internal solution)
Type: cell-based
REPORTED CONDITIONS: % inhibition at 32 μM, compound applied internally, manual patch clamp; read-out: Nav1.7 Intracellular Inhibition
PROPERTY MEASURED: inhibition at 32 µM

COMPOUND	PROPERTY MEASURED	OBS VALUE
Cc1cccc(C)c1NC(=O)C[n+]1cccc(C2CCCC2)c1.[Br-] [Compound 21A]	inhibition at 32 µM	> 95%

Each of the following entries comes with a recorded value; kindly state inhibition at 32 µM for each.
1. Cc1cccc(C)c1NC(=O)C[n+]1cccc2ccccc21.[Br-] [Compound 18A]
2. Cc1cccc(C)c1NC(=O)C[n+]1ccc(-c2ccccc2)cc1.[Br-] [Compound 14A]
3. CCC(C(=O)Nc1c(C)cccc1C)[n+]1ccn(C)c1.[Br-] (centres unmarked)
4. CCc1ccc[n+](CC(=O)Nc2c(C)cccc2C)c1.[Br-] [Compound 17A]
5. Cc1cc(F)cc(C)c1NC(=O)C[n+]1ccccc1.[Br-]
6. Cc1cccc(C)c1NC(=O)C[n+]1ccn(C)c1.[Br-]
7. Cc1cccc(C)c1NC(=O)C[n+]1c(C)cccc1C.[Br-]
8. Cc1cc(Cl)cc(C)c1NC(=O)C[n+]1ccccc1.[Br-]

1. > 95%
2. < 40%
3. 40 to 70%
4. 70 to 95%
5. < 40%
6. 40 to 70%
7. > 95%
8. < 40%

Could you tell me inhibition at 32 µM for each of these compounds? They are listed below.
1. Cc1cccc(C)c1NC(=O)C[n+]1cccc(-c2ccccc2)c1.[Br-] [Compound 12A]
2. Cc1cccc(C)c1NC(=O)C[n+]1ccccc1C.[Br-]
3. Cc1cc(C#N)cc(C)c1NC(=O)C[n+]1ccccc1.[Br-] [Compound 11A]

1: > 95%; 2: 70 to 95%; 3: < 40%

Hey, can you go through the list below and give me inhibition at 32 µM for every item?
1. Cc1cccc(C)c1NC(=O)C[n+]1cccc(C2CCCCC2)c1 [Compound 20A]
2. COc1cc(C)c(NC(=O)C[n+]2ccccc2)c(C)c1.[Br-] [Compound 10A]
3. CCC(C(=O)Nc1c(C)cccc1C)[n+]1ccccc1.[Br-] (centres unmarked)
4. Cc1cccc(C)c1NC(=O)C[n+]1cc(-c2ccccc2)n(C)c1.[Br-] [Compound 24A]
5. Cc1cc(C)c(NC(=O)C[n+]2ccccc2)c(C)c1.[Br-]
6. Cc1cccc(C)c1NC(=O)C[n+]1ccc2ccccc2c1.[Br-] [Compound 15A]

1: 70 to 95%; 2: < 40%; 3: 70 to 95%; 4: 70 to 95%; 5: < 40%; 6: > 95%

Give inhibition at 32 µM for each listed item.
1. CCc1cccc[n+]1CC(=O)Nc1c(C)cccc1C.[Br-] [Compound 13A]
2. Cc1cccc(C)c1NC(=O)C[n+]1c(C)ccc(-c2ccccc2)c1C.[Br-] [Compound 23A]
3. CCc1cc[n+](CC(=O)Nc2c(C)cccc2C)cc1 [Compound 19A]
4. Cc1cccc(C)c1NC(=O)C[n+]1ccccc1-c1ccccc1.[Br-] [Compound 16A]
5. Cc1cccc(C)c1NC(=O)C[n+]1ccccc1.[Br-]

["70 to 95%", "> 95%", "70 to 95%", "> 95%", "70 to 95%"]

---

TARGET OR TEST SYSTEM: NaV1.7 (Homo sapiens, UniProt Q15858)
Construct: expressed in transfected cells; tetracycline-inducible, kept under hygromycin and blasticidin
ASSAY COMMENT: Whole cell patch clamp, internal block of NaV1.7 current (compound in internal solution)
Type: cell-based
REPORTED CONDITIONS: % inhibition at 10 μM, compound applied internally, manual patch clamp; read-out: Nav1.7 Intracellular Inhibition
Experimental: Representative compounds of the invention were synthesized according to the described methods and tested for the ability to inhibit voltage-gated sodium channels. NaV1.7 was expressed upon induction with tetracycline. […] Once the recording was started, the voltage protocol was run at 30 second intervals for 5 minutes to get a stable baseline. […] Currents were recorded using PatchMaster software with Heka EPC10 (HEKA Electronics, Lambrecht, Germany). […]
PROPERTY MEASURED: inhibition at 10 µM

// worked examples, inhibition at 10 µM included
COMPOUND	inhibition at 10 µM
Cc1cccc(C)c1NC(=O)C[n+]1cccc(Cl)c1	70 to 95%
COc1cc(OC)c[n+](CC(=O)Nc2c(C)cccc2C)c1	70 to 95%
Cc1cccc(C)c1NC(=O)C[n+]1ccn(C(C)(C)C)c1	70 to 95%
CCc1ccc[n+](CC(=O)Nc2c(C)cccc2C)c1.[Br-] [Compound 17A]	70 to 95%
Cc1cccc(C)c1NC(=O)C[n+]1c2ccc(Cl)cc2cn1C	70 to 95%
Cc1cccc(C)c1NC(=O)C[n+]1cc(F)ccc1-c1ccccc1	> 95%
CCOC(=O)c1ccc[n+](CC(=O)Nc2c(C)cccc2C)c1.[Br-] [Compound 25A]	70 to 95%
COC(=O)c1c(F)c[n+](CC(=O)Nc2c(C)cccc2C)cc1F	40 to 70%
CCNc1ccc[n+](CC(=O)Nc2c(C)cccc2C)c1	> 95%
COc1ccc[n+](CC(=O)Nc2c(C)cccc2C)c1	70 to 95%

For each of the compounds below, state inhibition at 10 µM.
1. CCn1c(C)cc[n+]1CC(=O)Nc1c(C)cccc1C
2. Cc1cccc(C)c1NC(=O)C[n+]1ccn(Cc2ccccc2)c1

["70 to 95%", "70 to 95%"]

---

TARGET OR TEST SYSTEM: NaV1.7 (Homo sapiens, UniProt Q15858)
Construct: expressed in transfected cells; tetracycline-inducible, kept under hygromycin and blasticidin
ASSAY COMMENT: Automated patch clamp (Qube 384), internal block of NaV1.7 in HEK293 cells
Assay type: cell-based
REPORTED CONDITIONS: compound in internal solution, read-out: Nav1.7 Intracellular Inhibition (IC50)
Please respond with reported IC50 for every item in the list.

Answered examples (4):
COMPOUND	OBS VALUE
Cc1cccc(C)c1NC(=O)C[n+]1c(C)ccn1C(C)C	1 to 3 µM
Cc1cccc(C)c1NC(=O)C(CC(C)C)[n+]1ccccc1 (stereo not drawn)	1 to 3 µM
Cc1cccc(C)c1NC(=O)C[n+]1cccc(N2CCCC2)c1	< 1 µM
CCCC(C(=O)Nc1c(C)cccc1C)[n+]1ccccc1 (stereo not drawn)	3 to 10 µM

Batch lookup, IC50 per entry.
1. Cc1cccc(C)c1NC(=O)C[n+]1cccc(C(C)C)c1
2. Cc1cccc(C)c1NC(=O)C[n+]1cccn1CCC(C)C
3. Cc1cccc(C)c1NC(=O)C[n+]1cccn1C1CCCC1
4. Cc1cccc(C)c1NC(=O)C[n+]1cc(N)cc(C(F)(F)F)c1
5. Cc1cccc(C)c1NC(=O)C[n+]1cccc(C(F)(F)F)c1
6. COc1cc(C#N)c[n+](CC(=O)Nc2c(C)cccc2C)c1

1. 1 to 3 µM
2. 3 to 10 µM
3. < 1 µM
4. 3 to 10 µM
5. 1 to 3 µM
6. 10 to 30 µM

I'm hoping you can list IC50 for every compound here, please.
1. Cc1cccc(C)c1NC(=O)Cn1ccc[n+]1CC(=O)Nc1c(C)cccc1C
2. COc1cc(F)c[n+](CC(=O)Nc2c(C)cccc2C)c1

1. < 1 µM
2. 1 to 3 µM

---

Exercise: state measured pIC50 for each of the compounds provided.
TARGET OR TEST SYSTEM: NaV1.7 (Homo sapiens)
Construct: expressed in transfected cells; tetracycline-inducible, kept under hygromycin and blasticidin
ASSAY COMMENT: Automated patch clamp (Qube 384), internal block of NaV1.7 in HEK293 cells
Type: cell-based
REPORTED CONDITIONS: compound in internal solution, read-out: Nav1.7 Intracellular Inhibition (IC50)
pIC50: −log10 of the molar value.

Below are worked cases with known answers.
INPUT SMILES	TARGET OR TEST SYSTEM	pIC50
Cc1cccc(C)c1NC(=O)C[n+]1cc(F)ccc1-c1ccccc1	NaV1.7 (Homo sapiens)	5.52 to 6.00
Cc1cccc(C)c1NC(=O)C[n+]1cc(F)c2ccccc2c1	NaV1.7 (Homo sapiens)	5.00 to 5.52
CCNC(=O)Cn1ccc[n+]1CC(=O)Nc1c(C)cccc1C	NaV1.7 (Homo sapiens)	5.52 to 6.00
Cc1cccc(C)c1NC(=O)C[n+]1cccn1CC#N	NaV1.7 (Homo sapiens)	4.52 to 5.00
Cc1cccc(C)c1NC(=O)C[n+]1ccc(C)n1C(C)C	NaV1.7 (Homo sapiens)	5.52 to 6.00

Batch request: pIC50 per item, same order as input.
1. Cc1cccc(C)c1NC(=O)C[n+]1cccc(C(=O)OC2CCCC2)c1
2. CCn1ccc(C)[n+]1CC(=O)Nc1c(C)cccc1C
3. Cc1cccc(C)c1NC(=O)C[n+]1cccn1Cc1ccccc1
4. Cc1cccc(C)c1NC(=O)C[n+]1cccc(OC(C)C)c1

1. 5.52 to 6.00
2. 5.52 to 6.00
3. 5.52 to 6.00
4. > 6.00

Could you report pIC50 for every entry in the following list?
1. Cc1cccc(C)c1NC(=O)C[n+]1cccc(C2CC2)c1
2. Cc1cccc(C)c1NC(=O)C[n+]1c(C)ccn1C
3. Cc1cccc(C)c1NC(=O)C[n+]1ccccc1-c1ccccc1
4. Cc1cccc(C)c1NC(=O)C[n+]1cccc(C2CCCC2)c1

1: 5.00 to 5.52; 2: 5.00 to 5.52; 3: 5.52 to 6.00; 4: > 6.00

Quick request: pIC50 for each listed item, please.
1. Cc1cccc(C)c1NC(=O)C[n+]1cc(F)cc(-c2ccccc2)c1
2. CNC(=O)c1ccc[n+](CC(=O)Nc2c(C)cccc2C)c1
3. Cc1cccc(C)c1NC(=O)C[n+]1cc(CO)n(C(C)C)c1

1: > 6.00; 2: 5.52 to 6.00; 3: 4.52 to 5.00
